- target-under-test: Protein arginine N-methyltransferase 1 (Homo sapiens)
- assay-comment: Inhibition of PRMT1 (unknown origin) at 400 uM preincubated for 5 mins followed by SAM and H4 (1 to 25 residues) peptide addition measured after 1 hr by HTRF assay relative to control
The source made the active and inactive calls. The calls are words filed in the database; no cut-off is given here.
experimental-endpoint: inhibition

Field: example entries. Status: answers known.
>>> print(df.to_string())
                              sample_smiles                         target_under_test  test_result
0  Nc1ncnc2c1ncn2[C@@H]1O[C@H](C[C@H](N)CC2CCCCC2)[C@@H](O)[C@H]1O  Protein arginine N-methyltransferase 1 (Homo sapiens)     inactive
1  Nc1ncnc2c1ncn2[C@@H]1O[C@H](C[C@H](N)CC2CC2)[C@@H](O)[C@H]1O  Protein arginine N-methyltransferase 1 (Homo sapiens)          20%
2  Nc1ncnc2c1ncn2[C@@H]1O[C@H](C[C@@H](N)CC2CC2)[C@@H](O)[C@H]1O  Protein arginine N-methyltransferase 1 (Homo sapiens)     inactive
3  Nc1ncnc2c1ncn2[C@@H]1O[C@H](C[C@@H](N)CC2CCCCC2)[C@@H](O)[C@H]1O  Protein arginine N-methyltransferase 1 (Homo sapiens)     inactive
4  Nc1ncnc2c1ncn2[C@@H]1O[C@H](C[C@@H](N)CC2CCC2)[C@@H](O)[C@H]1O  Protein arginine N-methyltransferase 1 (Homo sapiens)     inactive

Checklist item: inhibition tested on Protein arginine N-methyltransferase 1 (Homo sapiens), entry Nc1ncnc2c1ncn2[C@@H]1O[C@H](C[C@@H](N)CC2CCCC2)[C@@H](O)[C@H]1O , value?
inactive
